- System: MDA-MB-231
- method notes: Growth inhibition of human MDA-MB-231 cells assessed as cell growth at 100 uM incubated for 48 hrs by sulforhodamine B assay relative to control
- Assay type: functional
- applied conditions: MDA-MB-231, 48 h, read-out: Activity
quantity name: growth at 100 µM (%)
The answer is to be given in %; state only the numeric part.

Recorded growth at 100 µM, per entry:
COc1cc(Cl)cc(-c2nn(-c3cccc(NC(=O)Nc4ccc(Cl)c(C(F)(F)F)c4)c3)cc2-c2ccncc2)c1
-88
O=C(Nc1cccc(-n2cc(-c3ccncc3)c(-c3cc(O)cc(Cl)c3)n2)c1)c1cc(C(F)(F)F)cc(C(F)(F)F)c1
-84
COc1cc(Cl)cc(-c2nn(-c3cccc(NC(=O)Nc4cc(C(F)(F)F)cc(C(F)(F)F)c4)c3)cc2-c2ccncc2)c1
-70

In the following, a different compound is considered.
Query block: Query for MDA-MB-231: what growth at 100 µM does the record show for `O=C(Nc1cccc(-n2cc(-c3ccncc3)c(-c3cc(O)cc(Cl)c3)n2)c1)Nc1ccc(Cl)c(C(F)(F)F)c1` ?
Result block: -38

---

# key: entry, value: TGI
- Tested on: KM12
- method notes: Growth inhibition of human KM12 cells incubated for 48 hrs by sulforhodamine B assay
- Format: functional, cell-based
- applied conditions: KM12, 48 h, read-out: TGI
Give a bare numeral; the unit µM is implied.

Take a look at these entries with their results.
COc1cc(Cl)cc(-c2nn(-c3cccc(NC(=O)Nc4ccc(Cl)c(C(F)(F)F)c4)c3)cc2-c2ccncc2)c1
44.4
O=C(Nc1cccc(-n2cc(-c3ccncc3)c(-c3cc(O)cc(Cl)c3)n2)c1)Nc1ccc(Cl)c(Cl)c1
36.9
COc1cc(Cl)cc(-c2nn(-c3cccc(NC(=O)Nc4cc(C(F)(F)F)cc(C(F)(F)F)c4)c3)cc2-c2ccncc2)c1
2.75

Query block: API: value(readout= TGI, system= KM12, query= `O=C(Nc1cccc(-n2cc(-c3ccncc3)c(-c3cc(O)cc(Cl)c3)n2)c1)Nc1ccc(Cl)c(C(F)(F)F)c1` )
Result block: 90.6

---

Parameter: GI50. Scope: all listed entries.
- System: U-251
- method notes: Growth inhibition of human U251 cells incubated for 48 hrs by sulforhodamine B assay
- Format: functional, cell-based
- applied conditions: U-251, 48 h, read-out: pGI50 (converted)

O=C(Nc1cccc(-n2cc(-c3ccncc3)c(-c3cc(O)cc(Cl)c3)n2)c1)c1ccc(N2CCOCC2)c(C(F)(F)F)c1
1.41 µM
COc1cc(Cl)cc(-c2nn(-c3cccc(NC(=O)Nc4cccc(C(F)(F)F)c4)c3)cc2-c2ccncc2)c1
0.891 µM
COc1cc(Cl)cc(-c2nn(-c3cccc(NC(=O)c4cccc(C(F)(F)F)c4)c3)cc2-c2ccncc2)c1
5.62 µM

Query block: // lookup GI50 | system=U-251 | key= `O=C(Nc1cccc(-n2cc(-c3ccncc3)c(-c3cc(O)cc(Cl)c3)n2)c1)Nc1ccc(Cl)c(C(F)(F)F)c1`
Result block: 1.74 µM

Query block: # iterate: `COc1cc(Cl)cc(-c2nn(-c3cccc(NC(=O)Nc4ccc(Cl)c(Cl)c4)c3)cc2-c2ccncc2)c1`
Result block: 1.7 µM

Query block: Check `COc1cc(Cl)cc(-c2nn(-c3cccc(NC(=O)Nc4ccc(Cl)c(C(F)(F)F)c4)c3)cc2-c2ccncc2)c1` too.
Result block: 0.724 µM

---

Below, each entry is listed with its recorded growth at 10 µM.
- Tested on: SK-MEL-28
- method notes: Growth inhibition of human SK-MEL-28 cells assessed as cell growth at 10 uM incubated for 48 hrs by sulforhodamine B assay relative to control
- Type: functional
- applied conditions: SK-MEL-28, 48 h, read-out: Activity
Give the quantity in %, number only.

Known growth at 10 µM results, listed for orientation:
COc1cc(Cl)cc(-c2nn(-c3cccc(NC(=O)Nc4cc(C(F)(F)F)cc(C(F)(F)F)c4)c3)cc2-c2ccncc2)c1
6.55
O=C(Nc1cccc(-n2cc(-c3ccncc3)c(-c3cc(O)cc(Cl)c3)n2)c1)Nc1ccc(Cl)c(Cl)c1
-50.9
COc1cc(Cl)cc(-c2nn(-c3cccc(NC(=O)Nc4ccc(Cl)c(Cl)c4)c3)cc2-c2ccncc2)c1
23.2

Next molecule, please.
Query block: Can you look up the measured growth at 10 µM of `O=C(Nc1cccc(-n2cc(-c3ccncc3)c(-c3cc(O)cc(Cl)c3)n2)c1)c1cc(C(F)(F)F)cc(C(F)(F)F)c1` for me?
Result block: 63.6

---

- System: T47D
- method notes: Growth inhibition of human T47D cells assessed as cell growth at 1 uM incubated for 48 hrs by sulforhodamine B assay relative to control
- Format: functional
- applied conditions: read-out: Activity
quantity name: growth at 1 µM (%)
Form entry: value (%) — number only.

COc1cc(Cl)cc(-c2nn(-c3cccc(NC(=O)Nc4cc(C(F)(F)F)cc(C(F)(F)F)c4)c3)cc2-c2ccncc2)c1
15
O=C(Nc1cccc(-n2cc(-c3ccncc3)c(-c3cc(O)cc(Cl)c3)n2)c1)Nc1ccc(Cl)c(Cl)c1
96

Query block: Consider the compound `COc1cc(Cl)cc(-c2nn(-c3cccc(NC(=O)Nc4ccc(Cl)c(C(F)(F)F)c4)c3)cc2-c2ccncc2)c1` and give its measured growth at 1 µM.
Result block: 58

Query block: Same read-out for `COc1cc(Cl)cc(-c2nn(-c3cccc(NC(=O)c4cccc(C(F)(F)F)c4)c3)cc2-c2ccncc2)c1` ?
Result block: 92

Query block: Likewise for `O=C(Nc1cccc(-n2cc(-c3ccncc3)c(-c3cc(O)cc(Cl)c3)n2)c1)Nc1ccc(Cl)c(C(F)(F)F)c1` ?
Result block: 53

---

- System: NCI/ADR-RES
- method notes: Growth inhibition of human NCI/ADR-RES cells incubated for 48 hrs by sulforhodamine B assay
- Type: functional, cell-based
- applied conditions: read-out: TGI
Entries and their measured TGI follow.
Provide the reading as a plain figure in µM.

CNC(=O)c1cc(Oc2ccc(NC(=O)Nc3ccc(Cl)c(C(F)(F)F)c3)cc2)ccn1
7.94

Query compound follows.
Query block: For the compound `COc1cc(Cl)cc(-c2nn(-c3cccc(NC(=O)Nc4ccc(Cl)c(Cl)c4)c3)cc2-c2ccncc2)c1` , what TGI is on record?
Result block: 24.9

---

- Test system: NCI-H226
- method notes: Growth inhibition of human NCI-H226 cells assessed as cell growth at 100 uM incubated for 48 hrs by sulforhodamine B assay relative to control
- Type: functional
- applied conditions: NCI-H226, 48 h, read-out: Activity
quantity name: growth at 100 µM (%)
Numbers only; they are read as %.

Known growth at 100 µM results, listed for orientation:
COc1cc(Cl)cc(-c2nn(-c3cccc(NC(=O)Nc4ccc(Cl)c(Cl)c4)c3)cc2-c2ccncc2)c1
2
COc1cc(Cl)cc(-c2nn(-c3cccc(NC(=O)Nc4cc(C(F)(F)F)cc(C(F)(F)F)c4)c3)cc2-c2ccncc2)c1
-47
COc1cc(Cl)cc(-c2nn(-c3cccc(NC(=O)Nc4cccc(C(F)(F)F)c4)c3)cc2-c2ccncc2)c1
-22

Query block: Look up growth at 100 µM for this compound: `O=C(Nc1cccc(-n2cc(-c3ccncc3)c(-c3cc(O)cc(Cl)c3)n2)c1)c1ccc(N2CCOCC2)c(C(F)(F)F)c1`
Result block: 27

Query block: Further, for `COc1cc(Cl)cc(-c2nn(-c3cccc(NC(=O)c4ccc(N5CCOCC5)c(C(F)(F)F)c4)c3)cc2-c2ccncc2)c1` ?
Result block: 50

Query block: # iterate: `O=C(Nc1cccc(-n2cc(-c3ccncc3)c(-c3cc(O)cc(Cl)c3)n2)c1)c1cc(C(F)(F)F)cc(C(F)(F)F)c1`
Result block: 19

---

Documented growth at 10 µM across a set of molecules
- System: A498
- method notes: Growth inhibition of human A498 cells assessed as cell growth at 10 uM incubated for 48 hrs by sulforhodamine B assay relative to control
- Format: functional
- applied conditions: A498, 48 h, read-out: Activity
// units = %; emit number, no label

// below: answered molecules
COc1cc(Cl)cc(-c2nn(-c3cccc(NC(=O)Nc4ccc(Cl)c(C(F)(F)F)c4)c3)cc2-c2ccncc2)c1
-9.18
COc1cc(Cl)cc(-c2nn(-c3cccc(NC(=O)c4ccc(N5CCOCC5)c(C(F)(F)F)c4)c3)cc2-c2ccncc2)c1
31.4
COc1cc(Cl)cc(-c2nn(-c3cccc(NC(=O)c4cccc(C(F)(F)F)c4)c3)cc2-c2ccncc2)c1
21.2

Next item in the queue.
Query block: Reported growth at 10 µM for `O=C(Nc1cccc(-n2cc(-c3ccncc3)c(-c3cc(O)cc(Cl)c3)n2)c1)c1cc(C(F)(F)F)cc(C(F)(F)F)c1` : what is it?
Result block: 40.3
